Where do the numbers come from? From paper PMC9482650.

- target: T1, MPP6, Q9NZW5
- T1 sequence (Q9NZW5 125-219, limits assumed, looked up): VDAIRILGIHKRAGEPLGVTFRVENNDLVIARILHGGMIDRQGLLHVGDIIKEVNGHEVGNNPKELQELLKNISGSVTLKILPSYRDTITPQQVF
- experiment: holdup assay
- Set-up: key: below the threshold = too weak to quantify, mostly under pKd 3.1 to 4
- conditions.used: plain residues with an end cap or a label only (N-terminal biotin on a linker: ado-ado)
observable: pKd

Consider the worked cases shown below.
> print(dat)
                         binder               result
1  NNMAFETTHF [SLC5A12, Q1EHB4]  below the threshold
2  ADEMICITTL [CACNA1D, Q01668]  below the threshold
3    VISSDDLTEL [CAPN6, Q9Y6Q1]  below the threshold
4   STYCDYTIEI [FAM71C, Q8NEG0]                 3.67
5    QLGSPTADLA [SIPA1, Q96FS4]  below the threshold
6    PSDSVGKDVF [EGLN1, Q9GZT9]  below the threshold

For reference, reported pKd for QKNKDREYYV [NRXN3, Q9HDB5] stands at 4.25

For reference, reported pKd for PSVYSRSQYV [CLDN8, P56748] stands at below the threshold

For reference, reported pKd for IQISELETNV [SLC1A7, O00341] stands at below the threshold

For reference, reported pKd for DFKHTKSFII [JAM2, P57087] stands at below the threshold

For reference, reported pKd for LVEEEEPMNL [HDAC7, Q8WUI4] stands at 3.57

For reference, reported pKd for KKTPVSRSHL [SLC22A3, O75751] stands at below the threshold

For reference, reported pKd for SQDPKKPSRV [CBY2, Q8NA61] stands at 3.89

For reference, reported pKd for RSPVATATSC [DUSP5, Q16690] stands at below the threshold

For reference, reported pKd for MQILSKPEFI [NPSR1, Q6W5P4] stands at below the threshold
